Exercise: state measured Efficacy for each of the molecules provided.
target: UniProt O75762; test: Agonist activity at TRPA1 (unknown origin) activation assessed as efficacy relative to control; settings: filed as agonist
Sequence (O75762 whole entry): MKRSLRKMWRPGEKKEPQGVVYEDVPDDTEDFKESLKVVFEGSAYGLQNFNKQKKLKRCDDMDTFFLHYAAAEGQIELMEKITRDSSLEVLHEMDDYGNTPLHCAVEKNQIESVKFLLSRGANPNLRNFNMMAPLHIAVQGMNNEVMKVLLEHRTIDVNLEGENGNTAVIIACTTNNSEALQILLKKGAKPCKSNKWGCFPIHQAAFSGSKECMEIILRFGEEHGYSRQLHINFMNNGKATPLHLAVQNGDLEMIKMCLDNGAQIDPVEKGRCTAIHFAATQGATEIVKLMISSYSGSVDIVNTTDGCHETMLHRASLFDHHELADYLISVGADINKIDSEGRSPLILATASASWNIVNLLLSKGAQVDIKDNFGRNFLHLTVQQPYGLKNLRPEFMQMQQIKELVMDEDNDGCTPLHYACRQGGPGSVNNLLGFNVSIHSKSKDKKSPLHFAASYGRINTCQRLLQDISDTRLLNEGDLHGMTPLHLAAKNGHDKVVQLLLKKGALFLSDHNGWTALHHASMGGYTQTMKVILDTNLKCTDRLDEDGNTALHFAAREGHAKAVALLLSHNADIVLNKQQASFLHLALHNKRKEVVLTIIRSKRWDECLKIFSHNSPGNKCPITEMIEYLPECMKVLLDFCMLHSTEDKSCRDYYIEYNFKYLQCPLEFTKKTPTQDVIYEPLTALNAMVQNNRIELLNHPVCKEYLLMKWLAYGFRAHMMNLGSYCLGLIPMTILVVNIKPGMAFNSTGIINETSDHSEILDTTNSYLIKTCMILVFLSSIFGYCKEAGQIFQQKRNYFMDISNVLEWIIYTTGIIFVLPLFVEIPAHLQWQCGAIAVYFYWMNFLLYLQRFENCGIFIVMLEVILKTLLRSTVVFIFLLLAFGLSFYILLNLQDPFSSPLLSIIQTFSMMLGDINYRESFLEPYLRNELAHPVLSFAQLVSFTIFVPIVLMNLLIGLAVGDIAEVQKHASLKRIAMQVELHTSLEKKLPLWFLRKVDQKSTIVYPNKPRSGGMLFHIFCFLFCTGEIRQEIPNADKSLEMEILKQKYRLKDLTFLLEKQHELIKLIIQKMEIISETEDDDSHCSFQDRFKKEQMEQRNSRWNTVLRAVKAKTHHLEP
Quick note: give the figure in %, leave out the unit.

# molecule CCCCCc1cc(O)c2c(c1)OC(C)(CCC=C(C)C)C=C2 (stereo unspecified) [CANNABICHROMENE] ; its Efficacy = 119

# molecule C=C(C)[C@@H]1CCC(C)=C[C@H]1c1c(O)cc(CCC)cc1O [CANNABIDIVARIN] ; its Efficacy = 105

# molecule CCCc1cc(O)c2c(c1)OC(C)(C)c1ccc(C)cc1-2 ; its Efficacy = 123

# molecule CCCCCc1cc(O)c(C/C=C(\C)CCC=C(C)C)c(O)c1 [CANNABIGEROL] ; its Efficacy = 100

# molecule CCCc1cc(O)c2c(c1)OC(C)(C)[C@@H]1CCC(C)=C[C@@H]21 [TETRAHYDROCANNABIVARIN] ; its Efficacy = 243

# molecule CCCCCc1cc(O)c2c(c1)OC(C)(C)c1ccc(C)cc1-2 [CANNABINOL] ; its Efficacy = 243

====

Result Type: IC50 (µM)
Quick note: give the figure in µM, leave out the unit.

Sample C=C(C)[C@@H]1CCC(C)=C[C@H]1c1c(O)cc(CCC)cc1O [CANNABIDIVARIN] , system: Cytochrome P450 2D6 (Homo sapiens). Its IC50 is 10.2

====

biological target: Transient receptor potential cation channel subfamily V member 2 (Homo sapiens); assay: Agonist activity at ionomycin-stimulated TRPV2 (unknown origin) channel desensitization in presence of lysophosphatidylcholine
Sequence (Q9Y5S1 whole entry): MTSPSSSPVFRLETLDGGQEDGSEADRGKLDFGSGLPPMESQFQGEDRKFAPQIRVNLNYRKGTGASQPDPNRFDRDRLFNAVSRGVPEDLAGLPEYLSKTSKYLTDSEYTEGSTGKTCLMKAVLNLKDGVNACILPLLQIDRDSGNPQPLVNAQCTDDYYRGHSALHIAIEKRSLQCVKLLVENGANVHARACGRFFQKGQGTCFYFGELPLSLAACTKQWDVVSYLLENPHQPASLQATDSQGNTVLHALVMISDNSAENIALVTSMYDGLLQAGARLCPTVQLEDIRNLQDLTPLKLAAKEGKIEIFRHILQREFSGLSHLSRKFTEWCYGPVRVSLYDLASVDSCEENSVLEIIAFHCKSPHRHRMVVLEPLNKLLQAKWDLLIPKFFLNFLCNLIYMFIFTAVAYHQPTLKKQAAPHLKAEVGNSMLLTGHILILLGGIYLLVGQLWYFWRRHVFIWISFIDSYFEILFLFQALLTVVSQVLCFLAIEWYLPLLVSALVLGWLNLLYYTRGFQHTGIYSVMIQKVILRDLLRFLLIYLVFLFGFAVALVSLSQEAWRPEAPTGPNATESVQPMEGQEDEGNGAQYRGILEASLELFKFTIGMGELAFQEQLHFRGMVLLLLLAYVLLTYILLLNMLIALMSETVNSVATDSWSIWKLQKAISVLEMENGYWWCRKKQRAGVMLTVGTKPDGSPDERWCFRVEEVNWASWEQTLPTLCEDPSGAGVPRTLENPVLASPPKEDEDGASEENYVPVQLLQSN
Result Type: pIC50
# pIC50 = -log10(concentration in molar units)

Sample CCCCCc1cc(O)c(C/C=C(\C)CCC=C(C)C)c(O)c1 [CANNABIGEROL] , system: Transient receptor potential cation channel subfamily V member 2 (Homo sapiens). Its pIC50 is 5.82

Sample CCCCCc1cc(O)c2c(c1)OC(C)(CCC=C(C)C)C=C2 (stereo unspecified) [CANNABICHROMENE] , system: Transient receptor potential cation channel subfamily V member 2 (Homo sapiens). Its pIC50 is 5.19

Sample C=C(C)[C@@H]1CCC(C)=C[C@H]1c1c(O)cc(CCC)cc1O [CANNABIDIVARIN] , system: Transient receptor potential cation channel subfamily V member 2 (Homo sapiens). Its pIC50 is 4.51

Sample CCCc1cc(O)c2c(c1)OC(C)(C)[C@@H]1CCC(C)=C[C@@H]21 [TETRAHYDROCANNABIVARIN] , system: Transient receptor potential cation channel subfamily V member 2 (Homo sapiens). Its pIC50 is 6.10

Sample CCCCCc1cc(O)c2c(c1)OC(C)(C)c1ccc(C)cc1-2 [CANNABINOL] , system: Transient receptor potential cation channel subfamily V member 2 (Homo sapiens). Its pIC50 is 4.80

Sample CCCc1cc(O)c2c(c1)OC(C)(C)c1ccc(C)cc1-2 , system: Transient receptor potential cation channel subfamily V member 2 (Homo sapiens). Its pIC50 is 5.66

====

biological target: Transient receptor potential cation channel subfamily V member 1 (Homo sapiens); experiment: Agonist activity at ionomycin-stimulated TRPV1 (unknown origin) activation assessed as efficacy relative to control
Sequence (Q8NER1 whole entry): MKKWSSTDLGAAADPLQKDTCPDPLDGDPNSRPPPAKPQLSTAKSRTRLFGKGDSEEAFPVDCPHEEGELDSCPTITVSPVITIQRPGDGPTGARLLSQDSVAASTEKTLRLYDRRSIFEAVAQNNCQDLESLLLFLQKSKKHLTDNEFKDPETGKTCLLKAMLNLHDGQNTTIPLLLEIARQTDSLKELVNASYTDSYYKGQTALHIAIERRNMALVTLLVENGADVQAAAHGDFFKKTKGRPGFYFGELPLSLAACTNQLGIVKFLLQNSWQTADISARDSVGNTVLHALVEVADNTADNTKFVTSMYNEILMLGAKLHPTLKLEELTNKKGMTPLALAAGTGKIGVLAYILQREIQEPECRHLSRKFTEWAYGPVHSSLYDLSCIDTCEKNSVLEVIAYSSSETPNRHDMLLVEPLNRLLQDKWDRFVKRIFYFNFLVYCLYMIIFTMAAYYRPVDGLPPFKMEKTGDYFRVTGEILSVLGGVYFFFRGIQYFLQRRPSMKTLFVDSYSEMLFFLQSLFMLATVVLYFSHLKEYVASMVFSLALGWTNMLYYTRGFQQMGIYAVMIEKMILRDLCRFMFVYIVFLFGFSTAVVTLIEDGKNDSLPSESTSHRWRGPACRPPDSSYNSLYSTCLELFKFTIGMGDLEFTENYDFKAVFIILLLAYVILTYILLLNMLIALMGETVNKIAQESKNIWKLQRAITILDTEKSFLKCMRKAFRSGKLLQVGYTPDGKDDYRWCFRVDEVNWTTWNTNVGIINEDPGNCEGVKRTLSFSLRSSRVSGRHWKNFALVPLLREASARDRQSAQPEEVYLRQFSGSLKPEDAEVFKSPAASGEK
Result Type: Efficacy (%)
Quick note: give the figure in %, leave out the unit.

# compound CCCCCc1cc(O)c(C/C=C(\C)CCC=C(C)C)c(O)c1 ; its Efficacy = 34

# compound C=C(C)[C@@H]1CCC(C)=C[C@H]1c1c(O)cc(CCC)cc1O ; its Efficacy = 21

====

Result Type: pKi
# pKi = -log10(concentration in molar units)

Sample C=C(C)[C@@H]1CCC(C)=C[C@H]1c1c(O)cc(CCC)cc1O , system: Cytochrome P450 2D6 (Homo sapiens, UniProt P10635). Its pKi is 5.24

====

Molecular target: Cytochrome P450 2B6 (Homo sapiens, UniProt P20813)
Sequence (P20813 whole entry): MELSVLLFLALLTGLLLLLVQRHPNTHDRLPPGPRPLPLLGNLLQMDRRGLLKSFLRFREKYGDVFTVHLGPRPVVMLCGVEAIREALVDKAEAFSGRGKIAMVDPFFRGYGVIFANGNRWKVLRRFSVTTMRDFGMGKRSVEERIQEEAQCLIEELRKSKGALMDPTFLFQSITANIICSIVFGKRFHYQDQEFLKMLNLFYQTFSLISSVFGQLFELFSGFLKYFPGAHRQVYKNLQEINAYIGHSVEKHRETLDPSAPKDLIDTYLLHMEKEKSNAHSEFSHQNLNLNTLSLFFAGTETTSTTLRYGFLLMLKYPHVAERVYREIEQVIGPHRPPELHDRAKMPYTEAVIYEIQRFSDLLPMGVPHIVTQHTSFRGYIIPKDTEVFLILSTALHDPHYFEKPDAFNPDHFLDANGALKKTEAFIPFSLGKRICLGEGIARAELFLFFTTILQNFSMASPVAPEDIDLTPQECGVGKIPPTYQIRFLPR
Test: Mixed inhibition of recombinant CYP2B6 (unknown origin) using coumarin as substrate in presence of NADPH-generating system
Result Type: pIC50
# pIC50 = -log10(concentration in molar units)

# molecule C=C(C)[C@@H]1CCC(C)=C[C@H]1c1c(O)cc(CCC)cc1O ; its pIC50 = 5.13

====

biological target: Cannabinoid receptor 2 (Homo sapiens, UniProt P34972); experiment: Binding affinity to CB2 receptor (unknown origin) expressed in AtT20 cells assessed as inhibition constant; type: cell-based
Sequence (P34972 whole entry): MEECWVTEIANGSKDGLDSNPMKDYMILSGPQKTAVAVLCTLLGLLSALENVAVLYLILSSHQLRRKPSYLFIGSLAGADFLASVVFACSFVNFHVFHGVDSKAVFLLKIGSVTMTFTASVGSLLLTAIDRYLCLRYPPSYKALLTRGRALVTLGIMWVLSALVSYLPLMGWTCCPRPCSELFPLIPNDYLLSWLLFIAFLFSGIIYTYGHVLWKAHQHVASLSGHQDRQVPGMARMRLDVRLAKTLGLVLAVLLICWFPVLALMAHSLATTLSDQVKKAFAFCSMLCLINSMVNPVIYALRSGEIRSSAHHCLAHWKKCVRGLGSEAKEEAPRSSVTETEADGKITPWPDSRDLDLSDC
Result Type: Ki
Be sure to follow the number with its unit.

# compound CCCCCc1cc(O)c2c(c1)OC(C)(C)c1ccc(C)cc1-2 ; its Ki = 300 nM

====

Exercise: state measured Efficacy for each of the compounds provided.
molecular target: Transient receptor potential cation channel subfamily V member 2 (Homo sapiens); assay: Agonist activity at ionomycin-stimulated TRPV2 (unknown origin) activation assessed as efficacy relative to control; conditions: filed as agonist
Quick note: give the figure in %, leave out the unit.

# compound CCCc1cc(O)c2c(c1)OC(C)(C)[C@@H]1CCC(C)=C[C@@H]21 [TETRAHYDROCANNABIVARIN] ; its Efficacy = 74

# compound CCCc1cc(O)c2c(c1)OC(C)(C)c1ccc(C)cc1-2 ; its Efficacy = 79

# compound CCCCCc1cc(O)c2c(c1)OC(C)(C)c1ccc(C)cc1-2 [CANNABINOL] ; its Efficacy = 74

# compound C=C(C)[C@@H]1CCC(C)=C[C@H]1c1c(O)cc(CCC)cc1O [CANNABIDIVARIN] ; its Efficacy = 50

# compound CCCCCc1cc(O)c(C/C=C(\C)CCC=C(C)C)c(O)c1 [CANNABIGEROL] ; its Efficacy = 74

====

biological target: Transient receptor potential cation channel subfamily V member 4 (Homo sapiens); test: Agonist activity at ionomycin-stimulated TRPV4 (unknown origin) channel desensitization in presence of 4alphaPDD
Sequence (Q9HBA0 whole entry): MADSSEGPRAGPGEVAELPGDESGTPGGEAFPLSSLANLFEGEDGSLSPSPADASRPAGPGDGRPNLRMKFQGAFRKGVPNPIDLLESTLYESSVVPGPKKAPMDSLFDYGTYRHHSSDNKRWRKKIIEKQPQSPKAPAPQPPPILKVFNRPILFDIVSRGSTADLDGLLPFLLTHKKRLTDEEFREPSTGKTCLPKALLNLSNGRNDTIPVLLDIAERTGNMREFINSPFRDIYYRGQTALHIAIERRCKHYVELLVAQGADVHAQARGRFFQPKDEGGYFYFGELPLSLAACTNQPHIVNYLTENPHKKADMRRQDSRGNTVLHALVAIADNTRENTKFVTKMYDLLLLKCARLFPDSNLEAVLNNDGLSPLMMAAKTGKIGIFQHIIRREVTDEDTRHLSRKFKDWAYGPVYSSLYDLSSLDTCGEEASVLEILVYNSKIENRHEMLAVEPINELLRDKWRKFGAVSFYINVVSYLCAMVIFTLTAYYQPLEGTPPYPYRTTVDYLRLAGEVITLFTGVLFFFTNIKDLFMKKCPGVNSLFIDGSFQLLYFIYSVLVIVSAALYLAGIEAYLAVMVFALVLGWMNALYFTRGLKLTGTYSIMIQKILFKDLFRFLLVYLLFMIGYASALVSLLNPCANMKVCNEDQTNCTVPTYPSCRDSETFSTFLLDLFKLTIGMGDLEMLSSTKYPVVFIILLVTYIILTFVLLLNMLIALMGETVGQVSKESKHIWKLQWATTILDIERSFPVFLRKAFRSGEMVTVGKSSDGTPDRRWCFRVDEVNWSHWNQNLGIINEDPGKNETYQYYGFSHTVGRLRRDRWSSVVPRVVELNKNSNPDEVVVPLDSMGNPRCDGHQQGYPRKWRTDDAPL
Result Type: pIC50
# pIC50 = -log10(concentration in molar units)

# molecule CCCc1cc(O)c2c(c1)OC(C)(C)[C@@H]1CCC(C)=C[C@@H]21 [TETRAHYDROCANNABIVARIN] ; its pIC50 = 5.49

# molecule CCCCCc1cc(O)c(C/C=C(\C)CCC=C(C)C)c(O)c1 ; its pIC50 = 5.89

# molecule CCCc1cc(O)c2c(c1)OC(C)(C)c1ccc(C)cc1-2 ; its pIC50 = 5.40

# molecule CCCCCc1cc(O)c2c(c1)OC(C)(CCC=C(C)C)C=C2 (stereo unspecified) ; its pIC50 = 5.00

# molecule CCCCCc1cc(O)c2c(c1)OC(C)(C)c1ccc(C)cc1-2 ; its pIC50 = 5.27

# molecule C=C(C)[C@@H]1CCC(C)=C[C@H]1c1c(O)cc(CCC)cc1O ; its pIC50 = 5.54

====

Target: Cytochrome P450 2B6 (Homo sapiens, UniProt P20813)
Sequence (P20813 whole entry): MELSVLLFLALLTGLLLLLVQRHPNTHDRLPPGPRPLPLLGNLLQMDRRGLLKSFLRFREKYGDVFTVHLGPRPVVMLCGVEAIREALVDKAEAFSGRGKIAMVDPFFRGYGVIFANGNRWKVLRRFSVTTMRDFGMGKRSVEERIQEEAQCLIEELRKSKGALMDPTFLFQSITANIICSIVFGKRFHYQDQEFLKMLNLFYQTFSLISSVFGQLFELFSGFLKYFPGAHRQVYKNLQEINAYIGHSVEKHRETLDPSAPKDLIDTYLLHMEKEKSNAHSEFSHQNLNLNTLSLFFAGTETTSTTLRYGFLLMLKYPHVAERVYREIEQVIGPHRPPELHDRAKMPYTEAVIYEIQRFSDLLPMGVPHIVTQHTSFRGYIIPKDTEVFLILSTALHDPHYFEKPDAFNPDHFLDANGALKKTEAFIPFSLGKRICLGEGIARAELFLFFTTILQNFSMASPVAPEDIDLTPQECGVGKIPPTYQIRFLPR
Assay: Inhibition of recombinant human CYP2B6 using coumarin as substrate preincubated with NADPH for 20 mins and measured after 30 min by Lineweaver-burk plots analysis
Type: ADME
Result Type: pKi
# pKi = -log10(concentration in molar units)

Sample CCCCCc1cc(O)c2c(c1)OC(C)(C)c1ccc(C)cc1-2 , system: Cytochrome P450 2B6 (Homo sapiens, UniProt P20813). Its pKi is 5.59
